- tested_target: T1, human interleukin-18 (IL-18), recombinant (human, UniProt Q14116 37-193)
- T1 construct: Commercial recombinant human IL-18; also called human IL-18; free IL-18
- T1 sequence (looked up): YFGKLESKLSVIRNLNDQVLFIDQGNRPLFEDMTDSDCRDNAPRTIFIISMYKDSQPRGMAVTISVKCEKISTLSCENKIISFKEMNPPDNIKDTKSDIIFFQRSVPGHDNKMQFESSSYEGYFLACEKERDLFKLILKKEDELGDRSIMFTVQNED
- protocol_summary: Luminex, IL-18 on beads, hybridoma antibody
property_measured: fluorescence intensity (monoclonal antibody binding on IL-18) (fluorescence intensity)
Give a bare numeral; the unit fluorescence intensity is implied.

Study these solved cases before continuing.
binder | value_unit | experimental_value
Antibody 109A6 (antibody, V domains shown, Mouse hybridoma monoclonal antibody) VH: EVQLQQSGAELVKPGASVKLSCTASGFKIKDTYIHWVIQRPAQGLEWIGRIDPANGNTIYGSKFQGKATLTADTSSNTAYIHLSSLTSGDSAVYYCAGYVWFAYWGQGTLVTVSA VL: DVVMTQVPLSLPVSLGDQASISCRSSQRLVHSNGNTYLHWFLQKPGQSPKLLIYTVSNRFSGVPDRFSGSGSGTDFTLKISRVEAEDLGVYFCSQSTLVPWTFGGGTKLEIK | fluorescence intensity | 25800
monoclonal anti-IL-18 antibody clone 131H1 (antibody) chain 1: QVQLKQSGPGLVQPSQSLSITCTVSGFSLTSYGVHWVRQSPGKGLEWLGVIWSGGSTDYNAAFISRLSISKDNSKSQVFFKMNSLQADDTAIYYCARSYDYDGRGYFDYWGQGTTLTVSS chain 2: DIQMTQSPASLSASVGETVTITCRASENVYRYLAWYQQRQGKSPQLLVYSAKTLAEGVPSRFSGSGSGTQFSLKINTLQPEDFGTYYCQHHYNTPLTFGAGTKLELK chain 3: DIVMSQSPSSLAVSAGEKVTMSCKSSQSLFNSKTRKNYLAWFQQKPGQSPELLIYWASTRKSGVPDRFTGSGSGTDFTLTISSVQAEDLAVYYCKQSYNLWTFGGGTKLEIK | fluorescence intensity | 24800

Then this binder:
[Q] Please give the measured fluorescence intensity (monoclonal antibody binding on IL-18) for this binder: Antibody 107C6 (antibody, V domains shown, Mouse hybridoma monoclonal antibody; also called clone #107C6) VH: QIQLVQSGPELKKPGETVKLSCRASGYTFTNYGMNWVKQAPGKGLKWMGWINTYSGVPTYADDFKGQFAFSLETSAATAFLQINNLKDEDTATYFCAREGYSTTRSMDYWGQGTSVTVSS VL: DIVMSQSPSSLAVSAGEKVTMSCKSSQSLLDSRTRKNYLVWYQQKPGQSPKLLIYWASTRGSGVPDRFTGSGSGTDFTLTISSVQAEDLAVYYCKQSYNLRTFGGGTKLEIK
[A] 26200
